Tested on: Radical scavenging activity
test description: Antioxidant activity assessed as inhibition of DPPH radical formation measured every min for 45 mins by spectrophotometric analysis
Type: functional
assay metric: IC50 (µM)

>>> df
                                   molecule                target_entity  assay_metric  unit_spec  value
0  CCOC(=O)/C=C/c1ccc(O)c(O)c1 [ETHYL CAFFEATE]  Radical scavenging activity          IC50         µM   26.6
1            CCOC(=O)/C=C/c1cc(O)c(O)c(O)c1  Radical scavenging activity          IC50         µM   15.1
2                   O=C(O)c1cc(O)c(O)c(O)c1  Radical scavenging activity          IC50         µM    9.9
3              O=C(O)/C=C/c1cc(O)c(O)c(O)c1  Radical scavenging activity          IC50         µM   11.8
4    CCOC(=O)C(=Cc1cc(O)c(O)c(O)c1)C(=O)OCC  Radical scavenging activity          IC50         µM   12.8
5       CCOC(=O)C(=Cc1ccc(O)c(O)c1)C(=O)OCC  Radical scavenging activity          IC50         µM   21.9
6                 O=C(O)/C=C/c1ccc(O)c(O)c1  Radical scavenging activity          IC50         µM   18.1
7  Cc1c(C)c2c(c(C)c1O)CCC(C)(C(=O)O)O2 (stereo not drawn)  Radical scavenging activity          IC50         µM   30.9
